Assay: Evaluation of drug stability under stress conditions (high temperature open condition 60° C.), XRPD and HPLC
Assay type: physicochemical
Conditions: 60° C. open, onset (day 0)
reported-property: HPLC peak RRT 1.07
Quote the value and follow it with the unit of measurement.

response.value for CNCc1cn(S(=O)(=O)c2ccc(OC)nc2)c(-c2ccccc2F)c1OC [Free base] (field: HPLC peak RRT 1.07) = 0.66%

###

Assay: Evaluation of solubility in biorelevant media (water, SGF, FaSSIF, FeSSIF), HPLC
Type: physicochemical
Settings: SGF, 37 °C, simulated gastric fluid, thermodynamic from solid, SGF, 37° C., 1 h; read-out: Solubility-1 h Concentration
Structures can show the parent of a compound that is named as a salt.
reported-property: solubility at 1 h

For this compound ( CNCc1cn(S(=O)(=O)c2ccc(OC)nc2)c(-c2ccccc2F)c1OC.O=C(O)C(O)C(O)C(=O)O [L-tartrate salt] ), measured solubility at 1 h is > 10000 µg/mL

CNCc1cn(S(=O)(=O)c2ccc(OC)nc2)c(-c2ccccc2F)c1OC.O=C(O)CCC(=O)O [Succinate salt] has a reported solubility at 1 h of > 10000 µg/mL

So, CNCc1cn(S(=O)(=O)c2ccc(OC)nc2)c(-c2ccccc2F)c1OC [Hydrochloride salt] ? Its solubility at 1 h was > 10000 µg/mL

###

Assay: Evaluation of drug stability under stress conditions (high temperature open condition 60° C.), XRPD and HPLC
Type: physicochemical
Conditions: 60° C. open, week 1
reported-property: HPLC peak RT 10.277 min, RRT 1.02 (%)
Lab book: enter the figure in %, no units written.

// CNCc1cn(S(=O)(=O)c2ccc(OC)nc2)c(-c2ccccc2F)c1OC [Free base] : HPLC peak RT 10.277 min, RRT 1.02 value = 9.95

###

Assay: Evaluation of drug stability under stress conditions (high temperature open condition 60° C.), XRPD and HPLC
Assay type: physicochemical
Settings: 60° C. open, week 1
reported-property: HPLC peak RT 6.797 min, RRT 0.68 (%)
Only the number, expressed in %, is required.

The molecule CNCc1cn(S(=O)(=O)c2ccc(OC)nc2)c(-c2ccccc2F)c1OC [Free base] showed HPLC peak RT 6.797 min, RRT 0.68 equal to 0.43

###

Test: Evaluation of drug stability under stress conditions (high temperature open condition 60° C.), XRPD and HPLC
Type: physicochemical
Conditions: 60° C. open, week 1
reported-property: HPLC peak RRT 1.07 (%)
Give just the number in %; leave the unit off.

get_value(item= CNCc1cn(S(=O)(=O)c2ccc(OC)nc2)c(-c2ccccc2F)c1OC [Free base] , readout=HPLC peak RRT 1.07) returns 0.57

###

Assay: Evaluation of solubility in biorelevant media (water, SGF, FaSSIF, FeSSIF), HPLC
Format: physicochemical
Conditions: FaSSIF, 37 °C, fassif, thermodynamic from solid, FaSSIF, 37° C., 24 h; read-out: Solubility-24 h Concentration
Each entry below carries its reported solubility at 24 h.

molecule	solubility at 24 h
CNCc1cn(S(=O)(=O)c2ccc(OC)nc2)c(-c2ccccc2F)c1OC.O=C(O)CCC(=O)O [Succinate salt]	> 10000 µg/mL

Below: the item to evaluate.
molecule CNCc1cn(S(=O)(=O)c2ccc(OC)nc2)c(-c2ccccc2F)c1OC.O=C(O)C(O)C(O)C(=O)O [L-tartrate salt] , solubility at 24 h observed: > 10000 µg/mL

FYI, the data here is from patent US20250042872A1.
